testSystem: NLK (Homo sapiens, UniProt Q9UBE8)
Construct: NLK, p38, or ALK5 for in vitro kinase assays were immunopurified from Kp53A1 cells; endogenous in cells; immunoprecipitated with anti-NLK (Abcam AB97642)
Sequence (Q9UBE8 whole entry): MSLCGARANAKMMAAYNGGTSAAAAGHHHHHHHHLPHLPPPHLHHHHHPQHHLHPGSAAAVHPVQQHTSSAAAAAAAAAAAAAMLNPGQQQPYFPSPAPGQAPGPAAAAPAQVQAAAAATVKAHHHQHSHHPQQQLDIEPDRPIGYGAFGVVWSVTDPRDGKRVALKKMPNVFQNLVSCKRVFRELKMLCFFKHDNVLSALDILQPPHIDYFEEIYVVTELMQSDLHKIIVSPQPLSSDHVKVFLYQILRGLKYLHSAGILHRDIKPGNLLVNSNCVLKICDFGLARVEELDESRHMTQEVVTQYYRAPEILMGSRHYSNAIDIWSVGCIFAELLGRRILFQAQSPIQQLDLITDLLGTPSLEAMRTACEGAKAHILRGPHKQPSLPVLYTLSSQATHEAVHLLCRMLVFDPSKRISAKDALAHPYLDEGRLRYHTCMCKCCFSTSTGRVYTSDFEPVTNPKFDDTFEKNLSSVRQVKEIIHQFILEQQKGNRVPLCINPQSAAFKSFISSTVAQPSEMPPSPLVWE
assayProtocol: NLK in vitro kinase assay (NLK, c-Myb, Raptor substrates)
Assay type: biochemical
endpointName: pIC50
Keep in mind that pIC50 stands for -log10 of concentration in molar terms.

Task: GET /values?readout=pIC50&item= Fc1ccc(Cl)cc1-c1nc(Nc2ccncc2)c2nccnc2n1 [SD208]
Result: 6.36

###

Tested on: RPS19-insufficient Lin-Kit+ progenitors from mouse embryonic (E14.5–E15.5) fetal livers
assayProtocol: c-Kit+ erythroid expansion rescue in murine RPS19-insufficient progenitors (Cell titer-Glo)
Type: cell-based
details: Mus musculus, read-out: EC50 of improved erythroid growth
endpointName: EC50 (nM)
# value in nM; strip the unit string

Task: Which EC50 value is on record for Fc1ccc(Cl)cc1-c1nc(Nc2ccncc2)c2nccnc2n1 ?
Result: 700

###

testSystem: NLK (Homo sapiens, UniProt Q9UBE8)
Construct: NLK, p38, or ALK5 for in vitro kinase assays were immunopurified from Kp53A1 cells; endogenous in cells; immunoprecipitated with anti-NLK (Abcam AB97642)
assayProtocol: NLK in vitro kinase assay (NLK, c-Myb, Raptor substrates)
Type: biochemical
details: Supplementary Fig. 1e; read-out: IC50 against NLK
Each entry below lists one item and its recorded IC50 value.
Expressed in nM, but write only the number.

- compoundStructure: "NC(=O)c1ccc(-c2nc(-c3ccc4c(c3)OCO4)c(-c3ccccn3)[nH]2)cc1"
  endpointName: "IC50"
  readoutValue: 1070

# input for lookup
Task: Please state recorded IC50 (tested on NLK (Homo sapiens, UniProt Q9UBE8)) of Cc1cccc(-c2nn3c(c2-c2ccnc4ccc(C(N)=O)cc24)CCC3)n1
Result: 1340
